# study_system: HIV Env, isolate Ce2060_G9 (HIV)
# method_description: cell-based or functional assay
Kindly supply the reported IC80 (µg/ml) with constrains values for the records listed here.
Express it in µg/mL; write the number only.

Form field: reported IC80 (µg/ml) with constrains of PGDM1400 (antibody, V domains shown) VH: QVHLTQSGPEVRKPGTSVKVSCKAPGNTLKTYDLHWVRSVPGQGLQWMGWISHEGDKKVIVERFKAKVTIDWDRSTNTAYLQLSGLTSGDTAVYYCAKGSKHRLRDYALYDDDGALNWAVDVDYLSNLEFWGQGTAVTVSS VL: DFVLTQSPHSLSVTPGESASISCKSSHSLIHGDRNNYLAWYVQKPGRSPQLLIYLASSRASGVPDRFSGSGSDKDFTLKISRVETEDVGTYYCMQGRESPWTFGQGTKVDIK
0.099

For ePGDM9 (antibody, V domains shown) VH: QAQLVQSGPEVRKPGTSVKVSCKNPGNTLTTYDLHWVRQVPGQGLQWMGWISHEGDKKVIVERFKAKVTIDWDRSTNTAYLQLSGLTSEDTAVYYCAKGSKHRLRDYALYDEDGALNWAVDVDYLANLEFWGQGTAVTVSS VL: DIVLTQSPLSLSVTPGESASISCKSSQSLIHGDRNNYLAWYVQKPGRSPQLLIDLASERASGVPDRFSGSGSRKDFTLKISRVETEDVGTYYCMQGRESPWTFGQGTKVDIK , what is its reported IC80 (µg/ml) with constrains?
0.538

Report IC80 (µg/ml) with constrains for ePGDM13 (antibody, V domains shown) VH: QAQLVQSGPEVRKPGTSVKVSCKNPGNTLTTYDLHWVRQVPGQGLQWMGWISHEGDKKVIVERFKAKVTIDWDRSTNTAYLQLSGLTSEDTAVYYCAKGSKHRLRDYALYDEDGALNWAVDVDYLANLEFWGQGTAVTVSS VL: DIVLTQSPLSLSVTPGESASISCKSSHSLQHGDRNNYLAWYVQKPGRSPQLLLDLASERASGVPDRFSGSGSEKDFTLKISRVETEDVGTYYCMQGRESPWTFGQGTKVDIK please.
0.071

Would you kindly share the measured IC80 (µg/ml) with constrains for ePGDM5 (antibody, V domains shown) VH: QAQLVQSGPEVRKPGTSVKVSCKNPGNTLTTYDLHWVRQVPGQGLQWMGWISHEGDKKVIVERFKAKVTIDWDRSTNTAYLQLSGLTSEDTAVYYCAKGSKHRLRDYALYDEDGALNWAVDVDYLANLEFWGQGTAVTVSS VL: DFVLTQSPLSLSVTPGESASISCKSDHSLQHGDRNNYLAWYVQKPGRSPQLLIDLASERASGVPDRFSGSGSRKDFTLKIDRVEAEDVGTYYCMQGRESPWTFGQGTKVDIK ?
0.044
